# Experiment Notes: Clearance in rat at 4 mg/kg, iv
# Format: ADME, organism-based
# Design: dose 4 mg/kg, route intravenous
# Particulars: in vivo
Quantity Name: clearance (mL/min/kg)
The reply should contain only the number, in mL/min/kg.

# input Fill in reported clearance for this entry: `COc1ccc2nc(C)cc(SCC(=O)N/N=C/c3cc(OC)c(OC)c(OC)c3)c2c1`
# output 55

====

# Experiment Notes: Volume of distribution at steady state in rat at 4 mg/kg, iv
# Format: ADME, organism-based
# Design: dose 4 mg/kg, route intravenous
# Particulars: in vivo, read-out: Vdss
Quantity Name: Vd (L/kg)
The reply should contain only the number, in L/kg.

# input Fill in reported Vd for this entry: `COc1ccc2nc(C)cc(SCC(=O)N/N=C/c3cc(OC)c(OC)c(OC)c3)c2c1`
# output 17.4
